- protocol notes: change in splice reporter luminescence, either direction, cell-based, HEK293, spliceosome inhibition project, primary screen (AID 1101);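 also: HEK293 cells carrying a splicing-competent luciferase reporter gene; test concentration not given here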
- assay context: HEK293 splicing luciferase reporter, 24 h, higher = more signal, called active from +8 up or from −8 down
Please mark 1 (yes) if the recorded z-score is equal to or greater than -0.1, and 0 (no) if it falls below.

- compound: "O=C1N(CCS(=O)(=O)c2ccccc2)c2ccccc2[C@H]2OC(c3ccc(OCCCO)cc3)=N[C@@]12Cc1ccccc1"
  group: "0 (no)"
- compound: "NC(=O)NCC#Cc1ccc2c(c1)[C@]1(C(=O)N2)[C@H](C(=O)N2CCN(c3ncccn3)CC2)[C@H]2C(=O)O[C@H](c3ccccc3)[C@H](c3ccccc3)N2[C@@H]1c1ccc(O)cc1"
  group: "0 (no)"
- compound: "COc1ccc(C#Cc2ccc3c(c2)[C@]2(C(=O)N3)[C@H](c3ccc(OCCO)cc3)N3[C@H](c4ccccc4)[C@H](c4ccccc4)OC(=O)[C@H]3[C@@H]2C(=O)NC[C@H](O)c2ccccc2)cc1"
  group: "0 (no)"
- compound: "Cc1ccccc1C(O)C1C=CC2C(=O)NC(=O)C2N1Nc1ccccn1 (stereo not given)"
  group: "1 (yes)"
- compound: "CCOC(=O)C[C@H]1[C@H](OC(=O)c2ccc(C(=O)c3ccccc3)cc2)[C@@H](NC(=O)C2CCCCC2)c2cc(OCCCO)ccc2N1C(=O)c1ccc2ccccc2n1"
  group: "1 (yes)"
- compound: "CC(C)N1CC=CC23O[C@@H]4C=CCCOC(=O)C4[C@H]2C(=O)N(CCCO)[C@@H]3C1=O (stereo not given in full)"
  group: "0 (no)"
- compound: "CN(C)CCCCCCNC(=O)[C@@H]1C[C@@H]2C(=O)N3CCC[C@H]3C(=O)N2[C@@H]1c1cccc(OCCO)c1"
  group: "1 (yes)"
- compound: "NCCCCCNC(=O)[C@@H]1C[C@@H]2C(=O)N[C@@H](CCCCN)C(=O)N2[C@@H]1c1ccc(O)cc1"
  group: "1 (yes)"
- compound: "CCCCCCCCCCC(O)C1C=CC2C(=O)N(c3ccccc3)C(=O)C2N1Nc1ccc(C#N)cc1 (stereo not given)"
  group: "1 (yes)"
- compound: "CCCCCN1CC=CC23O[C@@H]4C=CCCOC(=O)C4[C@H]2C(=O)N(CCCCCCO)[C@@H]3C1=O (stereo not given in full)"
  group: "1 (yes)"
- compound: "CC(C)[Si](C#C[Si](C(C)C)(C(C)C)C(C)C)(O[C@H](c1ccccc1)c1cn(Cc2ccccc2)nn1)C(C)C"
  group: "1 (yes)"
- compound: "O=C1C2C=CC(C(O)c3cccc(O)c3)N(Nc3ccc([N+](=O)[O-])cc3)C2C(=O)N1c1ccccc1 (stereo not given)"
  group: "1 (yes)"
- compound: "C=C[C@H](C)[C@H](OC(=O)Nc1ccc(SC)cc1)c1ccc(OCCO)cc1"
  group: "0 (no)"
- compound: "COCCCNC(=O)[C@@H]1c2ccccc2C(=O)N(C(C)C)[C@H]1c1ccc(CO)cc1"
  group: "1 (yes)"
- compound: "C=C(C(=O)CC[C@H](OC(=O)c1ccccc1-c1ccccc1C(=O)O)c1cccc(OCCO)c1)C(C)C"
  group: "0 (no)"

----------
Recorded z-score by entry
- protocol notes: growth modulation of vineyard yeast isolate – strain RM11-1a, OD600, basal, 24 h, primary screen (AID 1177);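 also: cultures grown under basal conditions with no added stressor; test concentration not given here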
- assay context: S. cerevisiae RM11-1a growth, OD600, 24 h; higher = more signal, called active from +8 up or from −8 down

- compound: "CCCNC(=O)[C@@]1(Sc2ccc(C)cc2)CC(=O)N(C2Cc3ccccc3C2)[C@@H]1c1ccc(CO)cc1I"
  z-score: -0.564
- compound: "NC(=O)[C@H]1[C@@H]2C(=O)O[C@@H](c3ccccc3)[C@@H](c3ccccc3)N2[C@@H](c2ccc(OCCO)cc2)[C@]12C(=O)Nc1ccc(C#CCCO)cc12"
  z-score: 1.78
- compound: "COCCOC(=O)N1C(=O)[C@@]2(c3cc(C#CCCO)ccc31)[C@H](c1ccc(OCCO)cc1)N1[C@H](c3ccccc3)[C@H](c3ccccc3)OC(=O)[C@H]1[C@@H]2C(=O)Nc1nc2ccccc2s1"
  z-score: 2.38
- compound: "[N-]=[N+]=NCc1ccccc1[C@H]1OC(c2ccc(OCCCO)cc2)=N[C@@]1(Cc1ccccc1N=[N+]=[N-])C(=O)NCC(O)CO (some centres undefined)"
  z-score: 0.313
- compound: "C=CCNC(=O)[C@@H]1[C@H]2C(=O)O[C@H](c3ccccc3)[C@H](c3ccccc3)N2[C@H](c2ccccc2OCCO)[C@@]12C(=O)N(C(=O)OCCOC)c1ccc(C#CC3(O)CCCCCC3)cc12"
  z-score: 0.766
- compound: "C=C[C@@H](OC)[C@H](OC(=O)Nc1ccc(OC)cc1)c1ccc(O)c(F)c1"
  z-score: -0.175
- compound: "CC(=O)NCCCC[C@@H]1NC(=O)[C@@H]2C[C@H](C(=O)NCCCCCN)[C@H](c3cccc(OCCO)c3)N2C1=O"
  z-score: -1.42
- compound: "O=C1C[C@]2(c3ccc([N+](=O)[O-])cc3)C(=O)N(C3CC3)c3cc(CO)ccc3[C@H]2N1CC12CC3CC(CC(C3)C1)C2"
  z-score: 0.866
- compound: "COC(=O)C1(CC(C)C)C=C2C(=C(c3ccccc3)C(=O)C2C)CN1 (centres undefined)"
  z-score: 0.168
- compound: "Cc1ccc(N2C(=O)c3ccccc3[C@@H](C(=O)NCCCN(C)C)[C@@H]2c2ccc(CO)cc2)nc1"
  z-score: -0.64
- compound: "COCCOC(=O)N1C(=O)[C@@]2(c3cc(C#CC4(O)CCCCCC4)ccc31)[C@H](C(=O)Nc1nc3ccccc3s1)[C@H]1C(=O)O[C@H](c3ccccc3)[C@H](c3ccccc3)N1[C@@H]2c1ccc(O)cc1"
  z-score: 1.24
- compound: "CCCCNC(=O)c1ccc(C#CC(C)(C)C)c(OC(C)=O)c1"
  z-score: 0.516
- compound: "COCCOC(=O)N1C(=O)[C@@]2(c3ccccc31)[C@H](c1ccc(O)cc1)N1[C@H](c3ccccc3)[C@H](c3ccccc3)OC(=O)[C@H]1[C@@H]2C(=O)N1CCN(c2ncccn2)CC1"
  z-score: -0.451
- compound: "CO[C@H]1O[C@H](CO)[C@@H](OC(=O)Nc2ccc3c(c2)OCO3)[C@H](OC(=O)Nc2ccc3c(c2)OCO3)[C@@H]1OC(=O)Nc1ccc2c(c1)OCO2"
  z-score: 1.81

----------
Recorded z-score by entry
- protocol notes: compound effects on lung adenocarcinoma cell viability – A549, calcein-AM fluorescence, 48 h, basal, profiling panel (AID 1162); also: test concentration not given here
- assay context: higher = more signal

- compound: "CC(C)N1C(=O)C[C@@](C(=O)NC2CC2)(c2ccc([N+](=O)[O-])cc2)[C@H]1c1ccc(CO)cc1"
  z-score: 0.219
- compound: "C=CC[C@@H](OC(=O)Nc1ccc(SC)cc1)c1ccc(O)c(F)c1"
  z-score: 1.12
- compound: "CCOC(=O)C1=CC[C@@H](c2ccccc2F)N(S(=O)(=O)c2ccc(C)cc2)[C@H]1c1ccccc1"
  z-score: -0.982
- compound: "CC(C)C(CO)N1C(=O)[C@@H]2C3C(=O)OCCC/C=C\\[C@H]3OC23C=CCN(c2ccc4ccccc4c2)C(=O)[C@@H]13 (some centres not stated)"
  z-score: -0.0401
- compound: "COCCOC(=O)N1C(=O)[C@@]2(c3ccccc31)[C@H](C(=O)NC[C@H](O)c1ccccc1)[C@H]1C(=O)O[C@H](c3ccccc3)[C@H](c3ccccc3)N1[C@@H]2c1ccc(O)cc1"
  z-score: 0.0528
- compound: "CC(C)(C)OC(=O)CC[C@@]1(C(=O)NCC(O)CO)N=C(c2ccc(OCCCO)cc2)O[C@@H]1c1ccccc1CN=[N+]=[N-] (some centres not stated)"
  z-score: 1.25
- compound: "COc1cc2c(cc1O)C=[N+](Cc1sc3ccccc3c1Cl)CC2"
  z-score: -0.47
- compound: "CC(C)N1C(=O)c2ccccc2[C@@H](C(=O)NCCN2CCOCC2)[C@@H]1c1ccc(CO)cc1"
  z-score: 0.281
- compound: "CCCNC(=O)[C@@H]1c2ccccc2C(=O)N(Cc2ccc(OC(F)(F)F)cc2)[C@H]1c1ccc(CO)cc1"
  z-score: 1.17
- compound: "CCCC[C@@H](O)C1=C(COc2ccccc2)C[C@H]2C(=O)N(Cc3ccccc3)C(=O)[C@H]2[C@H]1CO"
  z-score: 0.553
- compound: "Cc1cc(C)c(C(O)C2C=CC3C(=O)N(c4ccccc4)C(=O)C3N2Nc2ccccc2F)c(C)c1 (configuration not stated)"
  z-score: -0.472
- compound: "CCOC(=O)C=Cc1cccc(C)c1O"
  z-score: -0.877
- compound: "CC(C)[Si](C#CCCCC#N)(O[C@H](c1ccccc1)c1cn(Cc2ccccc2)nn1)C(C)C"
  z-score: 0.059
- compound: "Oc1ccc2cc[n+](Cc3cc4c(cc3Br)OCO4)cc2c1"
  z-score: 1.58
- compound: "CCCCCCCCCC(O)C1C=CC2C(=O)N(c3ccccc3)C(=O)C2N1Nc1cc(OC)c(OC)c(OC)c1 (configuration not stated)"
  z-score: -1.07
- compound: "CCOc1cc(C(O)C2C=CC3C(=O)NC(=O)C3N2Nc2ccc(Cl)cc2Cl)ccc1O (configuration not stated)"
  z-score: -1.33
- compound: "NCCCCCCNC(=O)[C@@H]1C[C@@H]2C(=O)N[C@@H](CCCCN)C(=O)N2[C@@H]1c1ccc(O)cc1"
  z-score: -0.551
